# targetOrTestSystem: Opioid receptor (Mus musculus) (UniProt P42866+P32300+P33534)
# Sequence (P32300 whole entry, looked up): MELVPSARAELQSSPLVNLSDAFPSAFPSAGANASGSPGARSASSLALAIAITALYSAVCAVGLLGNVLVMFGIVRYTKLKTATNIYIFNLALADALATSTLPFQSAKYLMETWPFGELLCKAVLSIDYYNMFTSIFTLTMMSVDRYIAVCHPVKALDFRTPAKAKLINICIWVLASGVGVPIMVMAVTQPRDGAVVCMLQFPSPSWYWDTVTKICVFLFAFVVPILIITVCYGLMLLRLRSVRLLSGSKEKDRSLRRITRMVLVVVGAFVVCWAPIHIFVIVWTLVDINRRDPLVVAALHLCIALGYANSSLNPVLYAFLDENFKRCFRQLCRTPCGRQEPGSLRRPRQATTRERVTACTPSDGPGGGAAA
# Sequence (P33534 whole entry, looked up): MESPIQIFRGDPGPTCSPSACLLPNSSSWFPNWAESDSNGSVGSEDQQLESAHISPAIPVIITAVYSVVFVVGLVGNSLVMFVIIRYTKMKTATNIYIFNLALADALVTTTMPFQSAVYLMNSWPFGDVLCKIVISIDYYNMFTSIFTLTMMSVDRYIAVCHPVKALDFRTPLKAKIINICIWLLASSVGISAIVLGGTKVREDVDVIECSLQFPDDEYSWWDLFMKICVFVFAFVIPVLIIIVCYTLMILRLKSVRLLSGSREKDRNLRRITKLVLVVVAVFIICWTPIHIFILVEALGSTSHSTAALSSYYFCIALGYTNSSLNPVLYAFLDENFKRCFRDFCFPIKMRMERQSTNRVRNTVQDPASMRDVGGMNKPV
# Sequence (P42866 whole entry, looked up): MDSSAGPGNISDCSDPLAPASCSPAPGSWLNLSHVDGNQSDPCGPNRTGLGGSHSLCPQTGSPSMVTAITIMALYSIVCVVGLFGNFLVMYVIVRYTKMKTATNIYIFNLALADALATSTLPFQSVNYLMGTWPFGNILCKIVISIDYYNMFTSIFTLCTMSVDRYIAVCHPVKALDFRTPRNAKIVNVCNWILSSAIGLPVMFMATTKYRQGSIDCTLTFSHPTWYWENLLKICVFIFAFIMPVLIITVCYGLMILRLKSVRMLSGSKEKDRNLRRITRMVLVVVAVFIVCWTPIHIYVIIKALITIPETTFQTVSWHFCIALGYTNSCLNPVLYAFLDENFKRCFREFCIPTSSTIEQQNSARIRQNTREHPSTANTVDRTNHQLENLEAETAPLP
# measurementProtocol: Binding to mouse brain membranes expressed as percentage of receptor occupancy determined from difference in specific binding of [3H]dihydromorphine obtained after 3 wash procedures.
# particulars: Membrane
Measured Receptor occupancy values are reported for all entries that follow.
# value in %; strip the unit string

# sampleSmiles, targetOrTestSystem, measuredQuantity, unitSpec, dataValue
rows = [
    ("Oc1ccc2c3c1O[C@H]1/C(=N\\N=C4/CC[C@@]5(O)[C@H]6Cc7ccc(O)c8c7[C@@]5(CCN6CC5CC5)[C@H]4O8)CC[C@@]4(O)[C@@H](C2)N(CC2CC2)CC[C@]314", "Opioid receptor (Mus musculus) (UniProt P42866+P32300+P33534)", "Receptor occupancy", "%", 35),
    ("CC(=O)N[C@@H]1CC[C@@]2(O)[C@H]3Cc4ccc(O)c5c4[C@@]2(CCN3CC2CC2)[C@H]1O5", "Opioid receptor (Mus musculus) (UniProt P42866+P32300+P33534)", "Receptor occupancy", "%", 4),
    ("CCCCCCCCCCCCCCCC(=O)N[C@H]1CC[C@@]2(O)[C@H]3Cc4ccc(O)c5c4[C@@]2(CCN3CC2CC2)[C@H]1O5", "Opioid receptor (Mus musculus) (UniProt P42866+P32300+P33534)", "Receptor occupancy", "%", 85),
]

Here is the next item to consider.
Problem: Identify measured Receptor occupancy associated with CC(=O)N[C@H]1CC[C@@]2(O)[C@H]3Cc4ccc(O)c5c4[C@@]2(CCN3CC2CC2)[C@H]1O5
Solution: 2

----------
# targetOrTestSystem: Opioid receptor (Mus musculus) (UniProt P42866+P32300+P33534)
# measurementProtocol: Inhibition of [3H]dihydromorphine binding to mouse brain membranes as percentage of Opioid receptor occupancy
Measured Receptor occupancy, listed per entry.
The figure you give is taken to be in %; do not add the unit.

# sampleSmiles, Receptor occupancy [%]
rows = [
    ("CCCCCCCC/C=C/CCCCCCCC(=O)N[C@@H]1CC[C@@]2(O)[C@H]3Cc4ccc(O)c5c4[C@@]2(CCN3CC2CC2)[C@H]1O5", 95),
]

Problem: Quote Receptor occupancy reported for CC/C=C/C/C=C/C/C=C/CCCCCCCC(=O)NN[C@@H]1CC[C@@]2(O)[C@H]3Cc4ccc(O)c5c4[C@@]2(CCN3CC2CC2)[C@H]1O5 please.
Solution: 93

Problem: Query Receptor occupancy for CC/C=C/C/C=C/C/C=C/CCCCCCCC(=O)N[C@H]1CC[C@@]2(O)[C@H]3Cc4ccc(O)c5c4[C@@]2(CCN3CC2CC2)[C@H]1O5
Solution: 94

Problem: Give the reported Receptor occupancy for this molecule. CCCCCCCCCCCCCCCC(=O)N[C@@H]1CC[C@@]2(O)[C@H]3Cc4ccc(O)c5c4[C@@]2(CCN3CC2CC2)[C@H]1O5
Solution: 93

----------
# targetOrTestSystem: Opioid receptor (Mus musculus) (UniProt P42866+P32300+P33534)
# measurementProtocol: Binding to mouse brain membranes expressed as percentage of Opioid receptors occupancy determined from difference in specific binding of [3H]dihydromorphine obtained after 10 wash procedures
# particulars: Membrane
measuredQuantity: Receptor occupancy (%)
// note: answer is a bare numeric in %

Guide cases for Receptor occupancy, answers given:
# sampleSmiles, Receptor occupancy [%]
measured = [
    ("CCCCC/C=C/C/C=C/CCCCCCCC(=O)N[C@H]1CC[C@@]2(O)[C@H]3Cc4ccc(O)c5c4[C@@]2(CCN3CC2CC2)[C@H]1O5", 46),
    ("CCCCCCCC/C=C/CCCCCCCC(=O)N[C@@H]1CC[C@@]2(O)[C@H]3Cc4ccc(O)c5c4[C@@]2(CCN3CC2CC2)[C@H]1O5", 32),
]

Now take the following compound into account.
Problem: Could you please provide reported Receptor occupancy for CC/C=C/C/C=C/C/C=C/CCCCCCCC(=O)N[C@@H]1CC[C@@]2(O)[C@H]3Cc4ccc(O)c5c4[C@@]2(CCN3CC2CC2)[C@H]1O5 ? Thanks!
Solution: 86

----------
# targetOrTestSystem: Opioid receptor (Mus musculus) (UniProt P42866+P32300+P33534)
# measurementProtocol: Inhibition of [3H]dihydromorphine binding to mouse brain membranes as percentage of Opioid receptor occupancy
measuredQuantity: Receptor occupancy (%)
Report only the number, with the unit % understood.

# sampleSmiles, Receptor occupancy (%)
records = [
    ("CC/C=C/C/C=C/C/C=C/CCCCCCCC(=O)N[C@@H]1CC[C@@]2(O)[C@H]3Cc4ccc(O)c5c4[C@@]2(CCN3CC2CC2)[C@H]1O5", 92),
]

Problem: Query Receptor occupancy for CCCCC/C=C/C/C=C/CCCCCCCC(=O)N[C@H]1CC[C@@]2(O)[C@H]3Cc4ccc(O)c5c4[C@@]2(CCN3CC2CC2)[C@H]1O5
Solution: 93

Problem: Please list Receptor occupancy recorded for the compound CCCCCCCCCCCCCCCCCC(=O)N[C@H]1CC[C@@]2(O)[C@H]3Cc4ccc(O)c5c4[C@@]2(CCN3CC2CC2)[C@H]1O5
Solution: 77

Problem: Give the reported Receptor occupancy for this compound. CCCCC/C=C/C/C=C/CCCCCCCC(=O)N[C@@H]1CC[C@@]2(O)[C@H]3Cc4ccc(O)c5c4[C@@]2(CCN3CC2CC2)[C@H]1O5
Solution: 94

Problem: Consider the compound CCCCCCCC/C=C/CCCCCCCC(=O)N[C@H]1CC[C@@]2(O)[C@H]3Cc4ccc(O)c5c4[C@@]2(CCN3CC2CC2)[C@H]1O5 and give its recorded Receptor occupancy.
Solution: 98

Problem: Using known records, supply Receptor occupancy for CCCCCCCCCCCCCCCC(=O)NN[C@@H]1CC[C@@]2(O)[C@H]3Cc4ccc(O)c5c4[C@@]2(CCN3CC2CC2)[C@H]1O5
Solution: 33

Problem: // fetch Receptor occupancy given entry CCCCCCCCCCCCCCCCCC(=O)N[C@@H]1CC[C@@]2(O)[C@H]3Cc4ccc(O)c5c4[C@@]2(CCN3CC2CC2)[C@H]1O5
Solution: 89

Problem: Report measured Receptor occupancy; entry is CCCCCCCCCCCCCCCCCC(=O)NN[C@@H]1CC[C@@]2(O)[C@H]3Cc4ccc(O)c5c4[C@@]2(CCN3CC2CC2)[C@H]1O5
Solution: 38

----------
# targetOrTestSystem: Opioid receptor (Mus musculus) (UniProt P42866+P32300+P33534)
# measurementProtocol: Binding to mouse brain membranes expressed as percentage of Opioid receptors occupancy determined from difference in specific binding of [3H]dihydromorphine obtained after 10 wash procedures
# particulars: Membrane
measuredQuantity: Receptor occupancy (%)
Report the value in % with no unit label.

Reference set (2 entries):
# sampleSmiles, Receptor occupancy / %
rows = [
    ("CCCCCCCC/C=C/CCCCCCCC(=O)N[C@H]1CC[C@@]2(O)[C@H]3Cc4ccc(O)c5c4[C@@]2(CCN3CC2CC2)[C@H]1O5", 21),
    ("CCCCC/C=C/C/C=C/CCCCCCCC(=O)N[C@@H]1CC[C@@]2(O)[C@H]3Cc4ccc(O)c5c4[C@@]2(CCN3CC2CC2)[C@H]1O5", 53),
]

Problem: Give reported Receptor occupancy value for CC/C=C/C/C=C/C/C=C/CCCCCCCC(=O)N[C@H]1CC[C@@]2(O)[C@H]3Cc4ccc(O)c5c4[C@@]2(CCN3CC2CC2)[C@H]1O5
Solution: 84

----------
# targetOrTestSystem: Opioid receptor (Mus musculus) (UniProt P42866+P32300+P33534)
# measurementProtocol: Inhibition of [3H]dihydromorphine binding to mouse brain membranes as percentage of Opioid receptor occupancy
Reported Receptor occupancy by item:
Your answer is read as %, so omit the unit and give the number.

# sampleSmiles, Receptor occupancy (%)
rows = [
    ("CCCCC/C=C/C/C=C/CCCCCCCC(=O)N[C@@H]1CC[C@@]2(O)[C@H]3Cc4ccc(O)c5c4[C@@]2(CCN3CC2CC2)[C@H]1O5", 96),
    ("CC/C=C/C/C=C/C/C=C/CCCCCCCC(=O)N[C@H]1CC[C@@]2(O)[C@H]3Cc4ccc(O)c5c4[C@@]2(CCN3CC2CC2)[C@H]1O5", 89),
    ("CCCCCCCCCCCCCCCCCC(=O)NN[C@@H]1CC[C@@]2(O)[C@H]3Cc4ccc(O)c5c4[C@@]2(CCN3CC2CC2)[C@H]1O5", 4),
    ("CCCCCCCCCCCCCCCCCC(=O)N[C@@H]1CC[C@@]2(O)[C@H]3Cc4ccc(O)c5c4[C@@]2(CCN3CC2CC2)[C@H]1O5", 48),
    ("CCCCC/C=C/C/C=C/CCCCCCCC(=O)N[C@H]1CC[C@@]2(O)[C@H]3Cc4ccc(O)c5c4[C@@]2(CCN3CC2CC2)[C@H]1O5", 93),
    ("CCCCCCCCCCCCCCCC(=O)N[C@@H]1CC[C@@]2(O)[C@H]3Cc4ccc(O)c5c4[C@@]2(CCN3CC2CC2)[C@H]1O5", 58),
]

Now take the following molecule into account.
Problem: Identify measured Receptor occupancy associated with CC/C=C/C/C=C/C/C=C/CCCCCCCC(=O)N[C@@H]1CC[C@@]2(O)[C@H]3Cc4ccc(O)c5c4[C@@]2(CCN3CC2CC2)[C@H]1O5
Solution: 95
